# Study System: T1, RecE564 Y608A (Escherichia coli K12, UniProt P15032 564-866, Y608A)
# T1 sequence: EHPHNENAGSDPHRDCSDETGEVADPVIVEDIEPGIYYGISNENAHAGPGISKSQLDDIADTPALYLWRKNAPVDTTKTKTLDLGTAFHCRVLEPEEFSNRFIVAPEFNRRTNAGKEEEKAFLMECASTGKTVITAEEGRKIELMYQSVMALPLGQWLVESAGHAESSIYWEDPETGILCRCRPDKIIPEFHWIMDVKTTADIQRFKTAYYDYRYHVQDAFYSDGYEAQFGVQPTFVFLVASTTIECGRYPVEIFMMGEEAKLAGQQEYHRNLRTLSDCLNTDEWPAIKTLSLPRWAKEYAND
# Test Summary: fluorescence anisotropy
Assay Readout: pKd
# pKd is unitless: minus log10 of the molar concentration; print number only

// lookup pKd for F25 (dsDNA) DNA 1: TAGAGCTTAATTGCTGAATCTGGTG DNA 2: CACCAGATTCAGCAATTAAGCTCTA
6.80

src = paper PMC2688778
